experimental.system: Lethal factor (Bacillus anthracis)
test.details: anthrax lethal factor cleavage blockers – biochemical, multiplex microsphere, cherry pick 1, confirmation (AID 602142)
applied.conditions: multiplex microsphere protease cleavage assay, LF; at 10 µM; hits give high values
This is one part of the list.
measured.quantity: inhibition (%)
Report the value in % with no unit label.

The value of inhibition recorded for CCOc1nnc(C)c2c(C)n(-c3cccc(Cl)c3)nc12 when tested on Lethal factor (Bacillus anthracis) reads 3.5

Recorded inhibition for Cc1ccc2[nH]cc(CCNC(=O)C3CCCCC3)c2c1 on Lethal factor (Bacillus anthracis) was 3.7

Summary: COc1ccc(N(CC(=O)NCCSCc2cccc(Cl)c2)S(C)(=O)=O)cc1 , Lethal factor (Bacillus anthracis), inhibition = -1.8

Observed inhibition, Lethal factor (Bacillus anthracis), COc1ccccc1-n1c(-c2cc(-c3ccco3)[nH]n2)n[nH]c1=S : 2.2

# value of inhibition, Lethal factor (Bacillus anthracis), item O=S(=O)(NC1CCCCC1N1CCC(O)CC1)c1ccc(Cl)cc1 (configuration not stated) = -1.6

The value of inhibition recorded for Brc1ccc2ncnc(NCc3cccnc3)c2c1 when tested on Lethal factor (Bacillus anthracis) reads -1.9

# lookup: COCCn1nnnc1C(c1cc2ccc(OC)cc2[nH]c1=O)N1CCc2ccccc2C1 (configuration not stated) on Lethal factor (Bacillus anthracis), inhibition = -6.3

Reading of inhibition for COc1cc2cc(CN(CCN3CCCC3)C(=O)Nc3ccccc3Cl)c(=O)[nH]c2cc1OC with Lethal factor (Bacillus anthracis): -0.1

// molecule CCCN1C2CCCC1CC(NC(=O)c1cccc(OC)c1)C2 (configuration not stated) , assay Lethal factor (Bacillus anthracis), inhibition value: 3.1

Record CN1CCN(c2ccc(NC(=O)c3ccccc3)cc2)CC1 / Lethal factor (Bacillus anthracis), inhibition recorded as 4.8

Result for COCc1cc(=O)[nH]c(SC)n1 , tested on Lethal factor (Bacillus anthracis), inhibition: -4.9

Known value: Lethal factor (Bacillus anthracis) inhibition of the molecule COc1ccccc1CNC(=O)C1Cc2ccccc2C(=O)O1 (configuration not stated) equals 1.5

With Lethal factor (Bacillus anthracis) as the test system, Cc1cccc2cc3c(N)c(C(=O)N4CCCc5ccccc54)sc3nc12 showed inhibition of 13.6

Bench note, Lethal factor (Bacillus anthracis): O=C(Nc1nnc(CCc2ccccc2)s1)C1CCCO1 (configuration not stated) , inhibition reads 2.9

inhibition of COc1ccc(NS(=O)(=O)c2cc(C(=O)Nc3ccccc3C(=O)O)ccc2C)cc1 , assay on Lethal factor (Bacillus anthracis), is -2.7

Response field inhibition (Lethal factor (Bacillus anthracis)) for item CC(=O)c1cccc(NC(=O)N2CCCC2C(=O)NCCc2ccccc2)c1 (configuration not stated) : 4.9

Result for Cc1c(NC(=O)c2cccnc2)c(=O)n(-c2ccccc2)n1C , tested on Lethal factor (Bacillus anthracis), inhibition: 4.2
